Could you please report measured Tmax for the items listed next?
Assay: Mouse PK analysis (blood/plasma concentration after oral administration)
Format: in vivo
Conditions: mouse; mice, oral, plasma
Counter-ions that a name gives are not always drawn.
Numbers only, in h.

Solved entries:
Cn1c(=O)n(C2CCC(=O)NC2=O)c2cccc(N3CCC(CN4CCC5(CC4)CCN(c4ccc6cc(-c7n[nH]c8c7C[C@@H]7C(F)(F)[C@]7(C)C8)[nH]c6c4)C5=O)CC3)c21 (stereo partly shown)
6
CC1(C)CCc2c(-c3cc4ccc(C(=O)N5CCC(C6CCN(c7ccc(C8CCC(=O)NC8=O)cn7)CC6)CC5)cc4[nH]3)n[nH]c2C1 (stereo not shown)
1.5
C[C@@]12Cc3[nH]nc(-c4cc5ccc(N6CCC7(CCN(Cc8ccc9c(c8)C(=O)N(C8CCC(=O)NC8=O)C9=O)CC7)C6=O)cc5[nH]4)c3C[C@@H]1C2(F)F (stereo partly shown) [Compound 15, hydrochloride]
4
Cn1c(=O)n([C@@H]2CCC(=O)NC2=O)c2cccc(N3CCC(CN4CCN(C(=O)c5ccc6cc(-c7n[nH]c8c7CCC(C)(C)C8)[nH]c6c5)CC4)CC3)c21
6
Cn1c(=O)n([C@H]2CCC(=O)NC2=O)c2cccc(N3CCC(CN4CCN(C(=O)c5ccc6cc(-c7n[nH]c8c7CCC(C)(C)C8)[nH]c6c5)CC4)CC3)c21
4
C[C@@H](C(=O)N(C)c1ccc2cc(-c3n[nH]c4c3CCC(C)(C)C4)[nH]c2c1)N1CCN(C[C@H]2CCN(c3ccc4c(c3)n(C)c(=O)n4C3CCC(=O)NC3=O)C2)CC1 (stereo partly shown)
4
C[C@@]12Cc3[nH]nc(C(=O)Nc4cnn([C@H](c5ccccc5)C5CN(C(=O)C6CN(c7ccc(C8CCC(=O)NC8=O)cn7)C6)C5)c4)c3C[C@@H]1C2(F)F (stereo partly shown)
6
CC1(C)CCc2c(-c3cc4ccc(C(=O)N5CCC(CN6CCC7(C6)CN(c6ccc(C8CCC(=O)NC8=O)cn6)C7)CC5)cc4[nH]3)n[nH]c2C1 (stereo not shown)
1.5
C[C@@H](C(=O)N(C)c1ccc2cc(-c3n[nH]c4c3C[C@@H]3C(F)(F)[C@]3(C)C4)[nH]c2c1)N1CCN(CC2CCN(c3ccc(C(=O)NC4CCC(=O)NC4=O)nc3)CC2)CC1 (stereo partly shown)
4

Continue with the next compound.
**Q:** Reported Tmax, compound CN(C(=O)CN1CCC2(CC1)CCN(c1ccc3c(c1)C(=O)N(C1CCC(=O)NC1=O)C3=O)C2)c1ccc2cc(-c3n[nH]c4c3C[C@@H]3C(F)(F)[C@]3(C)C4)[nH]c2c1 (stereo partly shown) : ____
**A:** 4
